Test system: 485176-168-R4-J1-PDC complex spheroid growth;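 also: spheroids exposed to compounds for seven days before readout; luminescence viability expressed relative to DMSO vehicle wells set as 100%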
test_name: Anticancer human tumor 485176-168-R4-J1-PDC patient-derived pancreatic adenocarcinoma cell line growth inhibition [RAS]
test_context: second compound 0.0949 µM; first compound 0.01 µM; stronger effect = lower value
metric_name: viability, T/C

molecule	endpoint_result
CCN1CCN(Cc2ccc(Nc3ncc(F)c(-c4cc(F)c5nc(C)n(C(C)C)c5c4)n3)nc2)CC1 + CCn1c(-c2cccnc2C(C)OC)c2c3cc(ccc31)N1CCOC(CC(NC(=O)C(C(C)C)N(C)C(=O)C3(F)CCN(C(=O)C#CC(C)(C)N(C)C)CC3)C(=O)N3CCCC(N3)C(=O)OCC(C)(C)C2)C1	85.2%
Nc1ccn(C2OC(CO)C(O)C2(F)F)c(=O)n1 (centres undefined) + CCn1c(-c2cc(N3CCN(C)CC3)cnc2C(C)OC)c2c3cc(ccc31)-c1csc(n1)CC(NC(=O)C1CC1C)C(=O)N1CCCC(N1)C(=O)OCC(C)(C)C2	63.8%
C=CC(=O)N1CCN(c2nc(OCC3CCCN3C)nc3c(F)c(-c4nc(N)cc(C)c4C(F)(F)F)c(Cl)cc23)C(C)C1 (centres undefined) + CCn1c(-c2cccnc2C(C)OC)c2c3cc(ccc31)N1CCOC(CC(NC(=O)C(C(C)C)N(C)C(=O)C3(F)CCN(C(=O)C#CC(C)(C)N(C)C)CC3)C(=O)N3CCCC(N3)C(=O)OCC(C)(C)C2)C1	83.7%
CC(C)n1nc(-c2ccc3oc(N)nc3c2)c2c(N)ncnc21 + CCn1c(-c2cc(N3CCN(C)CC3)cnc2C(C)OC)c2c3cc(ccc31)-c1csc(n1)CC(NC(=O)C1CC1C)C(=O)N1CCCC(N1)C(=O)OCC(C)(C)C2	57.3%
